Value source: patent US20200407445A1

Molecular target: T1, human TIGIT expressed on cells (human, UniProt Q495A1 22-244)
T1 construct: whole, on cells; on Jurkat E6.1 cells transduced with human TIGIT, on Promega TIGIT Effector cells or on human primary T cells; the assay field says which; also called hTIGIT; Jurkat-hTIGIT
T1 sequence (looked up): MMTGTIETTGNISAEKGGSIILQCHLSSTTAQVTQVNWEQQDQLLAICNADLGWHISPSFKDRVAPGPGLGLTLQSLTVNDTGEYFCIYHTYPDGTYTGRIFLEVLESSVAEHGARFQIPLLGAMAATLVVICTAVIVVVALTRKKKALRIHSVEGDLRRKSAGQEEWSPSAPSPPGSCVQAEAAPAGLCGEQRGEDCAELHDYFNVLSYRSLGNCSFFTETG
Test: flow cytometry, 100 nM Ab, Jurkat-hTIGIT vs untransfected
The following binders are listed with their measured FON (Fold Over Negative) values.
Give the value in fold but do not write fold after it.

Consider the following illustrative entries.
anti-TIGIT antibody clone 29499 (IgG) (antibody, V domains shown) VH: QLQLQESGPGLVKPSETLSLTCTVSGGSISSSRYYWAWIRQPPGKGLEWIGSIGTSGSTYYNPSLKSRVTISVDTSKNQFSLKLSSVTATDTAVYYCAIEGANFRDFGYVAFDIWGQGTMVTVSS VL: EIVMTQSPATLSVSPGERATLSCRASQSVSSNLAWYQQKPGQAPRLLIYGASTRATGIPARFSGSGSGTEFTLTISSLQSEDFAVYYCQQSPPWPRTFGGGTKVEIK | 164
anti-TIGIT antibody clone 26486 (IgG) (antibody, V domains shown, parent clone) VH: QVQLQESGPGLVKPSETLSLTCAVSGYSISSGYYWAWIRQPPGKGLEWIGSIYHSGSTYYNPSLKSRVTISVDTSKNQFSLKLSSVTAADTAVYYCAIEGANYYDFGYVAFDIWGQGTMVTVSS VL: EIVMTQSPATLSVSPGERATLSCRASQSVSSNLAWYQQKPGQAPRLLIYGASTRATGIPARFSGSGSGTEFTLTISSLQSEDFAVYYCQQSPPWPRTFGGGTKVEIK | 143
anti-TIGIT antibody clone 32931 (IgG) (antibody, V domains shown, human IgG; light chain optimised from 31288) VH: QLQLQESGPGLVKPSETLSLTCTVSGGSISSGSYYLAWIRQPPGKGLEWIGSIFRSGSTYYNPSLESRVTISVDTSKNQFSLKLSSVTAADTAVYYCAIEGANFKDFGYVAFDIWGQGTTVTVSS VL: EIVMTQSPATLSVSPGERATLSCRASKSVSSNLAWYQQKPGQAPRLLIYFASTRATGIPARFSGSGSGTEFTLTISSLQSEDFAVYYCQQTSPWPRTFGGGTKVEIK | 741
anti-TIGIT antibody clone 29494 (IgG) (antibody, V domains shown) VH: QVQLQESGPGLVKPSETLSLTCTVSGGSISSGSYYLAWIRQPPGKGLEWIGSIFRSGSTYYNPSLESRVTISVDTSKNQFSLKLSSVTAADTAVYYCAIEGANFKDFGYVAFDIWGQGTMVTVSS VL: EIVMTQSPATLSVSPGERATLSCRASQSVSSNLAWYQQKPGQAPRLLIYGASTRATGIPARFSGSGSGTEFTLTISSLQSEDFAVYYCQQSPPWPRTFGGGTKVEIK | 164

Q) Using the record for anti-TIGIT antibody clone 29520 (IgG) (antibody, V domains shown) VH: QVQLVESGGGLVQPGRSLRLSCAASGFTFRDYAMHWVRQAPGKGLEWVSGITWNSGLIGYADSVKGRFTISRDNAKNSLYLQMNSLRAEDTALYYCAKPVPRLRGLDVWGQGTMVTVSS VL: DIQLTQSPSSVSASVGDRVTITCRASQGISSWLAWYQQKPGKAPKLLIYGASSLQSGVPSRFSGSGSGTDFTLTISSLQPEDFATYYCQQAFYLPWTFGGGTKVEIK , report its FON (Fold Over Negative).
A) 166
